Values from ChEMBL document CHEMBL5528076

# EXPERIMENTAL_TARGET: Serine/threonine-protein kinase 4 (Homo sapiens) (UniProt Q13043)
# Sequence (Q13043 whole entry): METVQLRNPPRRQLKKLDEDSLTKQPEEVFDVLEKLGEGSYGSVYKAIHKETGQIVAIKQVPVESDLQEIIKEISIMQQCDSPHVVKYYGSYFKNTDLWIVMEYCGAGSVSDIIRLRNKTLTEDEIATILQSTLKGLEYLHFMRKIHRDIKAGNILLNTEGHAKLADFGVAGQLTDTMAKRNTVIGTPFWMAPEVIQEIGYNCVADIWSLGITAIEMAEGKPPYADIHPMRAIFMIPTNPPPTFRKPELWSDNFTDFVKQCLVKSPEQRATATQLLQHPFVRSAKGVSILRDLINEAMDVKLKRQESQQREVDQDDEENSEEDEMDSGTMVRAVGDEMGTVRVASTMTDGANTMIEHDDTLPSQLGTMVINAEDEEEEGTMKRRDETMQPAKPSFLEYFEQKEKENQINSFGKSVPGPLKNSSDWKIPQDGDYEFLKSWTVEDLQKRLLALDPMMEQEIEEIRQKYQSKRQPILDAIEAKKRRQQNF
# EXPERIMENT: Binding affinity to recombinant MST1 (unknown origin) assessed as change in melting temperature by DSF analysis
Label key: yes (1) means ΔTm under 4 °C; no (0) means ΔTm of 4 °C or more.

Hi there! Is ΔTm for CNc1ncc2cc(-c3ccc(-c4cccc(C)n4)cc3Cl)c(=O)n(C[C@H]3CC[C@H](N)CC3)c2n1 below 4 °C, do you know?
no (0)

Now give it for Cc1cccc(-c2ccc(-c3cc4cnc(NCCCN5CCOCC5)nc4n(CCCCN)c3=O)c(Cl)c2)n1 too.
yes (1)

Now give it for Cc1cccc(-c2ccc(-c3cc4cnc(NCCCN5CCCC5=O)nc4n(CCCCN)c3=O)c(Cl)c2)n1 too.
yes (1)

Now give it for CNc1ncc2cc(-c3ccc(-c4cccc(C)n4)cc3Cl)c(=O)n(CCCCOC)c2n1 too.
yes (1)

Now give it for Cc1cccc(-c2ccc(-c3cc4cnc(NC(CO)CO)nc4n(CCCCN)c3=O)c(Cl)c2)n1 too.
yes (1)

Now give it for CNc1ncc2cc(-c3ccc(-c4cccc(C)n4)cc3Cl)c(=O)n(CCC3CCNCC3)c2n1 too.
no (0)

###

# EXPERIMENTAL_TARGET: Serine/threonine-protein kinase 3 (Homo sapiens)
# EXPERIMENT: Binding affinity to recombinant MST2 (unknown origin) assessed as change in melting temperature by DSF analysis
Assign ΔTm to each entry below.
Quote the value and follow it with the unit of measurement.

Endpoint output: ΔTm of Cc1cccc(-c2ccc(-c3cc4cnc(NCCCN5CCOCC5)nc4n(CCCCN)c3=O)c(Cl)c2)n1 . Value?
5.9 °C

Now give it for CNc1ncc2cc(-c3ccc(-c4cccc(C)n4)cc3Cl)c(=O)n(CCC3CCNCC3)c2n1 too.
8 °C

Now give it for CNc1ncc2cc(-c3ccc(-c4cccc(C)n4)cc3Cl)c(=O)n(CCO)c2n1 too.
9 °C
